Assay method text: in vitro
Condition set: human, hela cells, % viability
Measured parameter: viability at 28.5 h, 10 µM (%)
The reply should contain only the number, in %.

Molecule	Measured parameter	Value measured
CCOC(=O)C(NS(=O)(=O)c1ccc(NC(C)=O)c(Cl)c1)C(=O)OCC [CBK043996]	viability at 28.5 h, 10 µM	96.2
COc1ccc(N(CC(=O)O)S(=O)(=O)c2ccccc2)c(OC)c1 [CBK262415]	viability at 28.5 h, 10 µM	108
O=S(=O)(Nc1ccc2[nH]ccc2c1)c1ccc(Br)cc1F [CBK153510]	viability at 28.5 h, 10 µM	88.9
Cc1ccsc1CN(C)C(=O)NC1CCCc2c1cnn2CCO (stereo not drawn) [CBK306349]	viability at 28.5 h, 10 µM	83

input: Sample CCCCCOc1ccc(NS(=O)(=O)c2cccc(C(=O)O)c2)cc1 [CBK299795] — what was its viability at 28.5 h, 10 µM?
output: 103

input: Sample COc1cccc(NC(=O)c2ccc(NC(=O)CCCC(=O)O)cc2)c1 [CBK287137] — what was its viability at 28.5 h, 10 µM?
output: 83.7

input: Sample O=c1c(Cc2ccc(Cl)cc2)c(O)ccn1Cc1ccncc1 [CBK291161] — what was its viability at 28.5 h, 10 µM?
output: 98.7

input: Sample CNC(=O)CN1CCN(c2cc(C#N)ccc2C(F)(F)F)CC1=O [CBK306441] — what was its viability at 28.5 h, 10 µM?
output: 93.6

input: Sample CC(=O)Nc1ccc(-c2cncc(NC3CCC(O)CC3)n2)cc1 (stereo not drawn) [CBK065886] — what was its viability at 28.5 h, 10 µM?
output: 93.9

----------
Assay method text: in vitro
Condition set: human, hela cells, % viability
Measured parameter: viability at 28.5 h, 10 µM (%)
The reply should contain only the number, in %.

Some molecules with known viability at 28.5 h, 10 µM results, for comparison:
Molecule	viability at 28.5 h, 10 µM, %
CSCC(=O)N1C[C@@H]2C[C@H](C1)c1c(-c3ccc(NC(C)=O)cc3)ccc(=O)n1C2 [CBK289200]	89.7
CCC(=O)Nc1ccc2oc(-c3cccc(C)c3)nc2c1 [CBK263065]	89.6

input: Sample Cc1ccc(C2=NN(C(=N)SC3CC(=O)N(c4ccc(C(=O)O)cc4)C3=O)C(c3ccc(Br)cc3)C2)cc1 (stereo not shown) [CBK263497] — what was its viability at 28.5 h, 10 µM?
output: 112

input: Sample COC(=O)c1ccc(N2CCN(C(C)c3nnc(C)o3)C(C)C2)cc1 (stereo not shown) [CBK304926] — what was its viability at 28.5 h, 10 µM?
output: 108

----------
Catalogue of activity at 10 µM readings, one per entry.
System: C. trachomatis L2/434/Bu expressing GFP (CTL2-GFP)
Construct: L2/434/Bu GFP intracellular growth in HeLa cells
Assay method text: microbe, parasite or virus in culture
Set-up: C. trachomatis total inclusion area by high-content imaging, normalised to DMSO
Condition set: Chlamydia trachomatis, HeLa, 28.5 h; total inclusion area; read-out: % of control remaining
Give the number first and the unit second.

Compound	Value measured
CC1=NN(c2ccccc2)C(=O)/C1=C/Nc1ccc(S(=O)(=O)Nc2nc(C)cc(C)n2)cc1 [CBK262368]	14.1%
COc1ccc(OC)c(Nc2nc(NCC3CCCO3)c3ccccc3n2)c1 (stereo not drawn) [CBK268403C]	10.2%
CCOc1ccc(OCC)c2c1n(C)c(SC)[n+]2C [CBK005720G]	3.38%
C/C(Nc1ccc(S(=O)(=O)Nc2nccc(C)n2)cc1)=C1\C(=O)N(c2nc3ccccc3s2)N=C1C(F)(F)F [CBK263002]	22.8%
c1ccc2c3c([nH]c2c1)C1(CCN(CCC2CCCCC2)C1)OCC3 (stereo not drawn) [CBK061789]	3.22%
O=C(Nc1cccc2c(NC(=O)N3CCCCC3)cccc12)N1CCCCC1 [CBK010775]	23.8%
CC(C)Nc1nc2cc(Cl)c(Cl)cc2nc1Sc1cccc(O)c1 [CBK093732]	35.1%
COc1ccc(C(=O)NNC(=O)/C=C/c2ccc(C(C)C)cc2)cc1 [CBK261697]	48.1%

Could you now consider this next compound?
input: Which measured activity at 10 µM belongs to COc1cc2c(cc1CNC(=O)c1cn(CCN)nn1)CCC2 [CBK306886] , tested on C. trachomatis L2/434/Bu expressing GFP (CTL2-GFP)?
output: 45.1%

----------
Catalogue of viability at 28.5 h, 10 µM readings, one per entry.
Assay method text: in vitro
Condition set: human, hela cells, % viability

Molecule	viability at 28.5 h, 10 µM
COc1ccc(Cl)cc1NC(=O)CN(c1cc([N+](=O)[O-])ccc1C)S(C)(=O)=O [CBK266394]	114%

input: Sample COC(=O)Nc1cc2sccc2nc1C(F)(F)F [CBK019229] — what was its viability at 28.5 h, 10 µM?
output: 80%

input: Sample Cn1cc2c(n1)[C@H]1CN(C(=O)c3cc(C(F)(F)F)nn3C)C[C@H]1C2 [CBK283400] — what was its viability at 28.5 h, 10 µM?
output: 93.8%

input: Sample O=C(Cc1ccsc1)N1CCn2nc(C(O)Cc3ccccc3)cc2C1 (centres unmarked) [CBK306547] — what was its viability at 28.5 h, 10 µM?
output: 95.9%

input: Sample COc1ccc(C2(C(=O)N3CCN(C)CC3)CC2)cc1 [CBK149837] — what was its viability at 28.5 h, 10 µM?
output: 86.3%

input: Sample CSc1nc2ccc(NS(=O)(=O)c3ccc(Cl)c(C(=O)O)c3)cc2s1 [CBK297541] — what was its viability at 28.5 h, 10 µM?
output: 82.6%

input: Sample CCOC(=O)Cn1c(-c2ccc(OC)cc2)cc2cccnc21 [CBK283320] — what was its viability at 28.5 h, 10 µM?
output: 84.2%

----------
Assay method text: in vitro
Condition set: human, hela cells, % viability
Catalogue of viability at 28.5 h, 10 µM readings, one per entry.
The reply should contain only the number, in %.

Cc1cc(COc2nccnc2N2CCCC2)no1 91.3
CC(=O)c1c(C(C)=O)c(C)n(-c2ccc(C(=O)O)cc2)c1C 90.9
O=C(O)c1cccc(NS(=O)(=O)c2ccc(-c3cnco3)cc2)c1 97.4
COc1ccc(Nc2nc(-c3cc(C(C)C)ccc3OC)cn3ccnc23)cn1 84.3
CC(C)NC(=O)N1Cc2nc[nH]c2C[C@H]1c1nc(-c2ccc3c(c2)OCO3)no1 94.5
C[C@]12CN(Cc3ccc(F)cc3)C[C@H]1NC(=O)c1ccccc1C2=O 87.8
O=C(OCc1csc2ccc(Cl)cc12)N1CCOCC1 94.7
CCCc1[nH]nc(O)c1Cc1ccc(C(F)(F)F)cc1 88.9
CNC(=O)NC(=O)C1CCN(CCc2cccs2)CC1 106

input: Sample Nc1nonc1C(=O)NCCNS(=O)(=O)c1ccc(F)cc1 — what was its viability at 28.5 h, 10 µM?
output: 88.1

----------
Assay method text: in vitro
Condition set: human, hela cells, % viability
Measured parameter: viability at 28.5 h, 10 µM (%)
The reply should contain only the number, in %.

Some compounds with known viability at 28.5 h, 10 µM results, for comparison:
Compound	viability at 28.5 h, 10 µM [%]
COc1cccc([C@H]2CN(C(=O)c3ccccc3)[C@@H]3CCN(Cc4ccccc4)C[C@H]23)c1 [CBK285624]	88.2
COc1ccc(N2C(=O)c3ccc(C(=O)OCC(=O)c4ccccc4Cl)cc3C2=O)c([N+](=O)[O-])c1 [CBK265514]	83.7
COc1cc(F)cc(OC2CCNCC2)c1NC(=O)c1cnccn1 [CBK050296T]	90.3
CCOc1ccc(-c2nc(CSc3n[nH]c(=O)n3CCc3ccccc3)cs2)cc1 [CBK296735]	94.7

input: Sample CN(CCN(C)/N=C/c1c2ccccc2cc2ccccc12)/N=C/c1c2ccccc2cc2ccccc12 [CBK262039] — what was its viability at 28.5 h, 10 µM?
output: 94.8

input: Sample COc1ccc(CN2/C(=N/c3ccccc3)S[C@H]3[C@@H]2[C@@H](O)[C@H](O)C[C@@H]3C(N)=O)cc1 [CBK288941] — what was its viability at 28.5 h, 10 µM?
output: 102

input: Sample Cn1cc2c(n1)CC1CCC2N1C(=O)c1ccc(F)c(F)c1 (stereo not drawn) [CBK281691] — what was its viability at 28.5 h, 10 µM?
output: 92.6

input: Sample CCOC(=O)N1CCC(NC(=O)N2CCCC(C(=O)N(CC)CC)C2)CC1 (stereo not drawn) [CBK156159] — what was its viability at 28.5 h, 10 µM?
output: 109

input: Sample CC(=O)Nc1ccc(OCC(O)Cn2c(CO)nc3ccccc32)cc1 (stereo not drawn) [CBK304549] — what was its viability at 28.5 h, 10 µM?
output: 81.3

input: Sample CC1NC(C(=O)O)Cc2c1[nH]c1ccccc21 (stereo not drawn) [CBK218664] — what was its viability at 28.5 h, 10 µM?
output: 102

input: Sample CC1(C)COC(=O)N1C1CCN(C(=O)CCS/C=C\c2ccccc2)CC1 [CBK045134] — what was its viability at 28.5 h, 10 µM?
output: 95.3

input: Sample O=S(=O)(c1ccc(N2CCNCC2)cc1)n1ccc2ccc(Br)cc21 [CBK034034C] — what was its viability at 28.5 h, 10 µM?
output: 70.6

input: Sample CCCC(=O)N1CCC(c2nc(C3CCCC3)no2)C1 (stereo not drawn) [CBK285457] — what was its viability at 28.5 h, 10 µM?
output: 106

input: Sample COc1ccc(Br)cc1/C=N/Nc1nc(NCc2ccccc2)nc(N2CCOCC2)n1 [CBK261232] — what was its viability at 28.5 h, 10 µM?
output: 92.9

input: Sample O=[N+]([O-])c1cc(S(=O)(=O)Nc2cccc3ccccc23)ccc1N1CCNCC1 [CBK015584C] — what was its viability at 28.5 h, 10 µM?
output: 90

input: Sample COc1cc(C)c(Cl)c(C)c1S(=O)(=O)NCc1ccc2c(c1)OCO2 [CBK266518] — what was its viability at 28.5 h, 10 µM?
output: 96

input: Sample COCCN(C)C(=O)c1cn2cc(-c3cc(C)oc3C)n(C)c(=O)c2n1 [CBK306605] — what was its viability at 28.5 h, 10 µM?
output: 80.5

input: Sample CCc1nc2n(n1)CC(NC1CCCc3ccccc31)CC2 (stereo not drawn) [CBK304837] — what was its viability at 28.5 h, 10 µM?
output: 95.6
